# experimental_system: PPARγ-RXRα heterodimer (Homo sapiens, UniProt P19793+P37231)
# Construct: 1.4 kb DNA fragment containing PPARγ gene was recovered from the gel; 1.4 kb DNA fragment containing RXRα gene was recovered from the gel
# Sequence (P37231 29-505): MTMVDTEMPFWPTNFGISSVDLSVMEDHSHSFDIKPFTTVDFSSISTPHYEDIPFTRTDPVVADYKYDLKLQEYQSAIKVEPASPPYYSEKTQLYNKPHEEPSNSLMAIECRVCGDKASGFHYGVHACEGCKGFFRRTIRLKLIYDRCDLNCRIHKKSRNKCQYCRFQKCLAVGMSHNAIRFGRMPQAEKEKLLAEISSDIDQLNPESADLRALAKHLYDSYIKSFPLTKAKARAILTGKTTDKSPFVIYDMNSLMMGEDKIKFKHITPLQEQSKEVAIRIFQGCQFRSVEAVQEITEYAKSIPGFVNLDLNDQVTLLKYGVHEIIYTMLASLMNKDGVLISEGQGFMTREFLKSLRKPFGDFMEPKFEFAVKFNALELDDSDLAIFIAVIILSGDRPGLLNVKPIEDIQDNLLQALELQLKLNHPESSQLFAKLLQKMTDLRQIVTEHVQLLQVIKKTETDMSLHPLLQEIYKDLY
# Sequence (P19793 whole entry, the tested form may be a part): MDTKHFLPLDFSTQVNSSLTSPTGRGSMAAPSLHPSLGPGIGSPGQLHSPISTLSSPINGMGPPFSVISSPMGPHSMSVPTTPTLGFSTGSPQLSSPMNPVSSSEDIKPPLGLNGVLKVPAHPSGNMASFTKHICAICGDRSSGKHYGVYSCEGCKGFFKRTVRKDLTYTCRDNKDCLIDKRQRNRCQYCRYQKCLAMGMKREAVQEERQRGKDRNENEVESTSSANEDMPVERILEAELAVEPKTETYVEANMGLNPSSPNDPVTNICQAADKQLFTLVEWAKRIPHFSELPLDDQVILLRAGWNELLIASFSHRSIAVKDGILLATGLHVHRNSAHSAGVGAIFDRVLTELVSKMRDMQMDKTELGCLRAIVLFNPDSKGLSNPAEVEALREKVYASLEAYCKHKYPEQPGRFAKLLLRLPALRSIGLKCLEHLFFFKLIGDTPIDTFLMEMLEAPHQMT
# assay_notes: PPARγ-RXRα heterodimer ligand activity (luciferase reporter, PPARγ:RXRα:4ERPP/CHO-K1 cells)
# conditions_used: 48 hrs, concentration for 50% of the maximum fold induction
Just a reminder that ties go to no (0): only EC50 strictly below 20 nM counts as yes (1).

These solved cases illustrate the format of a correct answer.
smiles_entry: O=C(O)c1cccc(-c2cc(-c3ccc(C(F)(F)F)cc3)on2)c1
label_class: yes (1)
--
smiles_entry: O=C(O)c1ccc(-c2cc(-c3ccccc3)on2)cc1
label_class: yes (1)
--
smiles_entry: Cn1c(-c2ccc(C(=O)O)cc2)ccc1-c1ccc(C(F)(F)F)cc1
label_class: yes (1)
--
smiles_entry: O=C(O)c1ccc(-c2noc(-c3ccc(C(F)(F)F)cc3)n2)cc1
label_class: no (0)
--
smiles_entry: O=C(O)c1ccc(-c2ccc(-c3ccc(C(F)(F)F)cc3)s2)cc1
label_class: no (0)

Here is another compound to look at.
# strict comparison: is reported EC50 < 20 nM? input = `O=C(O)c1cccc(-c2cc(-c3ccccc3)on2)c1`
yes (1)
